Biological target: Bcl-2-like protein 1 (Homo sapiens, UniProt Q07817)
Sequence (Q07817 whole entry): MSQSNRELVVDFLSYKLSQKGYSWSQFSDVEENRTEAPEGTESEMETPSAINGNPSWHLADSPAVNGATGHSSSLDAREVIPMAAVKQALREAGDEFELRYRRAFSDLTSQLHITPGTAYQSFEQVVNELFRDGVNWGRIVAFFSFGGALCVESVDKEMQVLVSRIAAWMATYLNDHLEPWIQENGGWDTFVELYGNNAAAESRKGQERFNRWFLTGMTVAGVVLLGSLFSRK
pKi: −log10 of the molar value.

- STRUCTURE AS SMILES: "Nc1ccc(Cl)c(CN2CCN(c3ncc(Cc4ccccc4)cn3)CC2)c1"
  pKi: 6.77
